- Measurement Target: Adenosine receptor A1 (Homo sapiens) (UniProt P30542)
- Sequence (whole entry): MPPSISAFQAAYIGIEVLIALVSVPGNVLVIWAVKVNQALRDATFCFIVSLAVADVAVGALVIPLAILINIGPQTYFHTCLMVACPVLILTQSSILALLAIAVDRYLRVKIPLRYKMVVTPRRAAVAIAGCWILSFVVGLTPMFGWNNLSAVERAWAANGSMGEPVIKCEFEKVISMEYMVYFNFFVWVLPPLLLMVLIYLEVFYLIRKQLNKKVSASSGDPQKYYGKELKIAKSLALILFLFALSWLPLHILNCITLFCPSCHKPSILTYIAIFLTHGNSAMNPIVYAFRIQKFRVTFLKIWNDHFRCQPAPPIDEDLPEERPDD
- Protocol Text: Allosteric enhancing activity at human adenosine A1 receptor expressed in CHO cells assessed as inhibition of forskolin-stimulated cAMP accumulation at 100 nM incubated for 10 mins prior to forskolin-stimulation measured after 5 mins by competition protein binding assay in presence of 2-chloro-N6-cyclopentyladenosine
- Assay type: functional, cell-based
Result Type: inhibition (%)

In: Return reported inhibition. Input compound: Nc1sc(-c2ccccc2)c(CN2CCN(c3ccccc3C(F)(F)F)CC2)c1C(=O)c1ccc(Cl)cc1
Out: 66

In: Return reported inhibition. Input compound: Nc1sc(-c2ccccc2)c(CN2CCN(c3ccc(Cl)cc3)CC2)c1C(=O)c1ccc(Cl)cc1
Out: 67

In: Return reported inhibition. Input compound: Nc1sc(-c2ccccc2)c(CN2CCN(c3ccccc3)CC2)c1C(=O)c1ccc(Cl)cc1
Out: 74

In: Return reported inhibition. Input compound: Nc1sc(-c2ccc(Cl)cc2)c(CN2CCN(c3ccc(Cl)c(C(F)(F)F)c3)CC2)c1C(=O)c1ccc(Cl)cc1
Out: 70

In: Return reported inhibition. Input compound: Cc1sc(N)c(C(=O)c2cccc(C(F)(F)F)c2)c1C
Out: 22

In: Return reported inhibition. Input compound: Nc1sc(-c2ccc(Cl)cc2)c(CN2CCN(c3ccc(Cl)c(Cl)c3)CC2)c1C(=O)c1ccc(Cl)cc1
Out: 67

In: Return reported inhibition. Input compound: Nc1sc(-c2ccc(F)cc2)c(CN2CCN(c3ccccc3)CC2)c1C(=O)c1ccc(Cl)cc1
Out: 81

In: Return reported inhibition. Input compound: Cc1sc(N)c(C(=O)c2ccc(Cl)cc2)c1CN1CCN(c2ccc(F)cc2)CC1
Out: 53

In: Return reported inhibition. Input compound: Nc1sc(-c2ccccc2)c(CN2CCN(c3ccc(OC(F)(F)F)cc3)CC2)c1C(=O)c1ccc(Cl)cc1
Out: 69

In: Return reported inhibition. Input compound: Nc1sc(-c2ccc(F)cc2)c(CN2CCN(c3ccc(F)cc3)CC2)c1C(=O)c1ccc(Cl)cc1
Out: 77

[P] Cc1sc(N)c(C(=O)c2ccc(Cl)cc2)c1CN1CCN(c2ccc(Cl)cc2)CC1
[Q] Cc1sc(N)c(C(=O)c2ccc(Cl)cc2)c1CN1CCN(c2ccc(C(F)(F)F)cc2)CC1
In: Quick check, higher inhibition between P and Q ? Label of pick, please.
Out: Q
(Q: 61%, P: 40%)

[I] Cc1sc(N)c(C(=O)c2ccc(Cl)cc2)c1CN1CCN(c2ccc(Cl)c(C(F)(F)F)c2)CC1
[II] Nc1sc(-c2ccccc2)c(CN2CCN(c3ccc(C(F)(F)F)cc3)CC2)c1C(=O)c1ccc(Cl)cc1
In: Of I and II , which shows the smaller inhibition value? Label of pick, please.
Out: I

[A] Nc1sc(Br)c(CN2CCN(c3ccc(F)cc3)CC2)c1C(=O)c1ccc(Cl)cc1
[B] Nc1sc(-c2ccc(Cl)cc2)c(CN2CCN(c3cccc(C(F)(F)F)c3)CC2)c1C(=O)c1ccc(Cl)cc1
In: Quick check, higher inhibition between A and B ? Label of pick, please.
Out: B

Origin of values: ChEMBL document CHEMBL2169819
